TESTED SYSTEM: bovine lung-derived ANP receptor (bovine)
Sequence (P10730 42-537): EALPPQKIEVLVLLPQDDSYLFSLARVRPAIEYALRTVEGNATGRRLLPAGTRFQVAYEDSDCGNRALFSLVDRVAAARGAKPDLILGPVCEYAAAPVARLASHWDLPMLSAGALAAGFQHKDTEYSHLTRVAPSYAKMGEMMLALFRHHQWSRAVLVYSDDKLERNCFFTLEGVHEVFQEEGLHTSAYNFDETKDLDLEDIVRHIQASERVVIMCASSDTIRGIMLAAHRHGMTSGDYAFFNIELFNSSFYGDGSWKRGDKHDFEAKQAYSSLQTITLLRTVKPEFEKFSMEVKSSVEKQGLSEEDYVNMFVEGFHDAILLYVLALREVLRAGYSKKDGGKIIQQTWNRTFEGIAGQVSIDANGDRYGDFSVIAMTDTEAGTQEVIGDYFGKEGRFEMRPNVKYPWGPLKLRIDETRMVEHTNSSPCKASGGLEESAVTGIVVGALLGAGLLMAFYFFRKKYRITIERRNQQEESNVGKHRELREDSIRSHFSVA
ASSAY: competition radioligand binding: displacement of 125I-rat ANP from bovine lung membrane fraction, filter assay
pIC50: −log10 of the molar value.
RECORDED ENDPOINT: pIC50

{"columns": ["SUBSTANCE", "pIC50"],
 "data": [
  ["compound (h) (H-Ala-Phe-Gly-Gly-Arg-Ile-Asp-Arg-Ile-Gly-Ala-Ala-NH2) (peptide)", 8.60]
]}

1. compound (g) (H-Phe-Gly-Gly-Arg-Ile-Asp-Arg-Ile-NH2) (peptide)
2. compound (k) (H-Phe-Gly-Gly-Arg-(N-Me)Ile-Asp-Arg-Ile-NH2) (peptide)
Input: Out of 1 and 2 , name the one with the higher pIC50. Please identify the chosen entry by its label.
Output: 1
